Would you kindly list pEC50 for each of these molecules?
Target: TLR8 (Homo sapiens, UniProt Q9NR97)
Sequence (Q9NR97 27-1041): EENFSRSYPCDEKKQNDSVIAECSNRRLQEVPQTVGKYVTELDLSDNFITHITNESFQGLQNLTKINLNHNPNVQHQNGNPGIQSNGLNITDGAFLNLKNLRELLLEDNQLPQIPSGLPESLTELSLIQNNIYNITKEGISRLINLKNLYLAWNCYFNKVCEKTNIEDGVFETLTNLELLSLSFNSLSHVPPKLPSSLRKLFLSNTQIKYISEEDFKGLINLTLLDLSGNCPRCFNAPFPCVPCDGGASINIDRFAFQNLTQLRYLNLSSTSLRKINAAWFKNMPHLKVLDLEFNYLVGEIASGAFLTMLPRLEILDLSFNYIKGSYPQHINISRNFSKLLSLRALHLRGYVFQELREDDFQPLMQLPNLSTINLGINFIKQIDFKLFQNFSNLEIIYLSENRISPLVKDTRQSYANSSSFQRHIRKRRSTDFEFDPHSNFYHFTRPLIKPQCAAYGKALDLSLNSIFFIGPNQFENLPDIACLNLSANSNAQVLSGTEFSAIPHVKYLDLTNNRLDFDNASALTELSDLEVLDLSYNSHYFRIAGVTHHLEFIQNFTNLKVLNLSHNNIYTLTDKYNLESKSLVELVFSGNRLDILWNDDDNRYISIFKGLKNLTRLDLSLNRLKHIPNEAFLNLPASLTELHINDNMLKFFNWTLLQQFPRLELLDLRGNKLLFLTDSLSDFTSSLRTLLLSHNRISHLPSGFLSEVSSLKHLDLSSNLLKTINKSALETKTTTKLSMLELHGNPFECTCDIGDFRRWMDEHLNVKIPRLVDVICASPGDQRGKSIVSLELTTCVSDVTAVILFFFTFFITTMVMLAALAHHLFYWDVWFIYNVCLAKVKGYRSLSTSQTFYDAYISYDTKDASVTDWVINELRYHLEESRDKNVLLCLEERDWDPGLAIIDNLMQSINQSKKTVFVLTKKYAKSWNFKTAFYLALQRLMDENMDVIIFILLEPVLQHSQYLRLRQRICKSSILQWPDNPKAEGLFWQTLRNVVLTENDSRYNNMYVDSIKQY
Test: TLR8 EC50 assay
Assay type: cell-based
Details: Table 2
pEC50: −log10 of the molar value.

Ask: Provide TLR8 (Homo sapiens, UniProt Q9NR97) pEC50 reading for CC(C(=O)O)c1ccc2c(c1)nc(N)c1nc(CCCO)[nH]c12 (centres unmarked) .
Result: < 4.00

Ask: Provide TLR8 (Homo sapiens, UniProt Q9NR97) pEC50 reading for Cc1ccc2c(c1)nc(N)c1nc(CCCO)[nH]c12 .
Result: 4.00 to 4.70

Ask: Provide TLR8 (Homo sapiens, UniProt Q9NR97) pEC50 reading for Nc1nc2ccccc2c2[nH]c(C3COC3)nc12 .
Result: < 4.00

Ask: Provide TLR8 (Homo sapiens, UniProt Q9NR97) pEC50 reading for Nc1nc2cc(-c3cccs3)ccc2c2[nH]c(CCCO)nc12 .
Result: < 4.00

Ask: Provide TLR8 (Homo sapiens, UniProt Q9NR97) pEC50 reading for Cc1ccc(-c2ccc3c(c2)nc(N)c2nc(CCCO)[nH]c23)cn1 .
Result: < 4.00

###

Target: TLR7 (Homo sapiens, UniProt Q9NYK1)
Sequence (Q9NYK1 27-1049): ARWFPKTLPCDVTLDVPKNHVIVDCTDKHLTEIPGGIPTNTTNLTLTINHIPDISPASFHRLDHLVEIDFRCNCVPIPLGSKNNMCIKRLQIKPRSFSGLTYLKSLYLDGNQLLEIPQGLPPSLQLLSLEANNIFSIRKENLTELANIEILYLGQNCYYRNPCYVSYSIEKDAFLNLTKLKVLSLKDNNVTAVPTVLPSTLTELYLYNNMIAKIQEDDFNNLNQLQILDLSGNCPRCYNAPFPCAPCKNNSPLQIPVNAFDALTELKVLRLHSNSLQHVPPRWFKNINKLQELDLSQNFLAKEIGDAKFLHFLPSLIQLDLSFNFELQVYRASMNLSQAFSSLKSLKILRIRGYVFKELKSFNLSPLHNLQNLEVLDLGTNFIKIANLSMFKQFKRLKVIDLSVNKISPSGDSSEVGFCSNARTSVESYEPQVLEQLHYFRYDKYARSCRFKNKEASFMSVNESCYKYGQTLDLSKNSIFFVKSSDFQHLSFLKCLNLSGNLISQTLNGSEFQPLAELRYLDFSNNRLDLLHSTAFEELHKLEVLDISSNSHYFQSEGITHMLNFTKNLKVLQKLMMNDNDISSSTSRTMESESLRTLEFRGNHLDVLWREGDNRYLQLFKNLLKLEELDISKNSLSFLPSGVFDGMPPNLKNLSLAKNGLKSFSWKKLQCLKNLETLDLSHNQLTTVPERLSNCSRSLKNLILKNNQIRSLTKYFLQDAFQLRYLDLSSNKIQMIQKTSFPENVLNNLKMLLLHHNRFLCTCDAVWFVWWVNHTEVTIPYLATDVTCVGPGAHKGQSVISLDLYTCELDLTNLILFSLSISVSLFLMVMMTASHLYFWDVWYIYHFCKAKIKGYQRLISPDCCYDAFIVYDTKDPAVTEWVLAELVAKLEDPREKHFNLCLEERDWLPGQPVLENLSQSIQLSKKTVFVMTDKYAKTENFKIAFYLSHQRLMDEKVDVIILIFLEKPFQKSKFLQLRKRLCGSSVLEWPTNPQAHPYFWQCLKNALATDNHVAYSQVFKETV
Assay: TLR7 EC50 assay
Format: cell-based
Details: Table 2
pEC50: −log10 of the molar value.
OBSERVABLE: pEC50

Ask: Provide measured pEC50 value, entry: Cc1cc(C)n(-c2ccc3c(c2)nc(N)c2nc(CCCO)[nH]c23)n1
Result: 4.00 to 4.70

Ask: Provide measured pEC50 value, entry: Cc1cnn(-c2ccc3c(c2)nc(N)c2nc(CCCO)[nH]c23)c1
Result: < 4.00

Ask: Provide measured pEC50 value, entry: Nc1nc2cc(N3CCOCC3)ccc2c2[nH]c(CCCO)nc12
Result: < 4.00

Ask: Provide measured pEC50 value, entry: Nc1nc2cc(-c3nccs3)ccc2c2[nH]c(CCCO)nc12
Result: < 4.00

Ask: Provide measured pEC50 value, entry: Nc1nc2cc(-c3ccc(O)nc3)ccc2c2[nH]c(CCCO)nc12
Result: < 4.00

Ask: Provide measured pEC50 value, entry: Nc1nc2cc(-c3cnoc3)ccc2c2[nH]c(CCCO)nc12
Result: < 4.00

Ask: Provide measured pEC50 value, entry: Nc1nc2cc(-c3ccccc3)ccc2c2[nH]c(CCCO)nc12
Result: < 4.00

Ask: Provide measured pEC50 value, entry: Nc1nc2ccccc2c2[nH]c([C@H]3C[C@H](O)C3)nc12
Result: < 4.00

Ask: Provide measured pEC50 value, entry: Nc1nc2cc(C3CCCCC3)ccc2c2[nH]c(CCCO)nc12
Result: < 4.00

###

biological target: hNLRP3 (Homo sapiens); construct: THP-1 cells were purchased from the American Type Culture Collection; host or cells: THP-1 cells, PMA-differentiated; assay: hNLRP3 agonist assay: IL-1β production in PMA-differentiated THP-1 cells (ELISA); assay type: cell-based; details: Table 2, 4 hours, IL-1β by ELISA
Sequence (Q96P20 whole entry): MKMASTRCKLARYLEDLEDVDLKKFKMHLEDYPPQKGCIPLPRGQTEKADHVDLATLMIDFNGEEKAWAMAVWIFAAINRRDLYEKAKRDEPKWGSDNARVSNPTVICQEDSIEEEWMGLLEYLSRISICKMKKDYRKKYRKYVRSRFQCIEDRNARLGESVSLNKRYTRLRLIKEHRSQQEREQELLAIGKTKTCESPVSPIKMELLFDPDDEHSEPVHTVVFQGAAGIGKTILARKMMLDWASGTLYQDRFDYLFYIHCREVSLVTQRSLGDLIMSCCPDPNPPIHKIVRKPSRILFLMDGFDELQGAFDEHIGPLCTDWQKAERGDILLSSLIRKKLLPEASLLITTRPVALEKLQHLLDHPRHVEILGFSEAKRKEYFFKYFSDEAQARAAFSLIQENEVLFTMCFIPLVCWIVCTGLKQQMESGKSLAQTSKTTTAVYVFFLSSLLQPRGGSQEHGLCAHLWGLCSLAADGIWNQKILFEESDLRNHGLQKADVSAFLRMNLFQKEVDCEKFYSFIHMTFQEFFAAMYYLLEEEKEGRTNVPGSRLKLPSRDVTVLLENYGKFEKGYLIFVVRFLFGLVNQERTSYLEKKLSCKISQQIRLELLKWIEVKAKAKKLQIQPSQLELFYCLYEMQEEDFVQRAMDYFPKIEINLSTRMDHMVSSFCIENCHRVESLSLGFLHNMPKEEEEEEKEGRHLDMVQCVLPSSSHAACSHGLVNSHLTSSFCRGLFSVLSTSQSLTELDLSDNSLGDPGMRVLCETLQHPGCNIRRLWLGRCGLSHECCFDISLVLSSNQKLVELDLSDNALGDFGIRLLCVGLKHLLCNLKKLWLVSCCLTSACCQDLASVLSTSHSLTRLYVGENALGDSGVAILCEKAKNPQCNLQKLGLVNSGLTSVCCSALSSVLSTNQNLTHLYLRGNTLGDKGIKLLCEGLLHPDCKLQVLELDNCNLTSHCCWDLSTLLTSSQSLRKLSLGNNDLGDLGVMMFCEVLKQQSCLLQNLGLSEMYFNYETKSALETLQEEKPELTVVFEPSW
OBSERVABLE: EC50

Ask: Provide measured EC50 value, entry: CCCc1ccc2c(c1)nc(N)c1nc(CCCO)[nH]c12 [Compound 160]
Result: ≤ 1 µM

Ask: Provide measured EC50 value, entry: Nc1nc2cc(-c3cncc4ccccc34)ccc2c2[nH]c(CCCO)nc12 [Compound 192]
Result: > 100 µM

Ask: Provide measured EC50 value, entry: Cn1cc(-c2ccc3c(c2)nc(N)c2nc(CCCO)[nH]c23)cn1 [Compound 193]
Result: 20 to 100 µM

Ask: Provide measured EC50 value, entry: Nc1nc2cc(-n3cnc4ccccc43)ccc2c2[nH]c(CCCO)nc12 [Compound 182]
Result: > 100 µM

Ask: Provide measured EC50 value, entry: CC(C)(C)OC(=O)N1CCC(c2nc3c(N)nc4cc(-c5cccnc5)ccc4c3[nH]2)CC1 [Compound 221]
Result: 1 to 20 µM

###

biological target: TLR7 (Homo sapiens); assay: TLR7 EC50 assay; assay type: cell-based; settings: Table 1
OBSERVABLE: EC50

Ask: Provide TLR7 (Homo sapiens) EC50 reading for Nc1nc2ccccc2c2[nH]c(CCCO)nc12 [Compound 101] .
Result: 20 to 100 µM

###

Would you kindly list pEC50 for each of these molecules?
target: hNLRP3 (Homo sapiens); construct: THP-1 cells were purchased from the American Type Culture Collection; host or cells: THP-1 cells, PMA-differentiated; experiment: hNLRP3 agonist assay: IL-1β production in PMA-differentiated THP-1 cells (ELISA); type: cell-based; details: Table 2, 4 hours, IL-1β by ELISA
pEC50: −log10 of the molar value.

Ask: Provide measured pEC50 value, entry: Nc1nc2cc(-c3cccnc3)ccc2c2[nH]c(CCCO)nc12
Result: 4.70 to 6.00

Ask: Provide measured pEC50 value, entry: N#Cc1ccccc1-c1ccc2c(c1)nc(N)c1nc(CCCO)[nH]c12
Result: < 4.00

Ask: Provide measured pEC50 value, entry: Nc1nc2cc(-c3ccc[nH]c3=O)ccc2c2[nH]c(CCCO)nc12
Result: 4.70 to 6.00

Ask: Provide measured pEC50 value, entry: Cc1ccc2c(c1)nc(N)c1nc(CCCO)[nH]c12
Result: 4.70 to 6.00

Ask: Provide measured pEC50 value, entry: CCN(C(C)=O)C(C)c1nc2c(N)nc3cc(-c4cc[nH]n4)ccc3c2[nH]1 (stereo not drawn)
Result: 4.70 to 6.00

Ask: Provide measured pEC50 value, entry: Nc1ccc(-c2ccc3c(c2)nc(N)c2nc(CCCO)[nH]c23)cn1
Result: < 4.00

Ask: Provide measured pEC50 value, entry: Nc1nc2cc(Br)ccc2c2[nH]c([C@H]3CC[C@@H](O)CC3)nc12
Result: 4.70 to 6.00

Ask: Provide measured pEC50 value, entry: CC(C)(C)OC(=O)NC1CCC(c2nc3c(N)nc4cc(Br)ccc4c3[nH]2)CC1 (stereo not drawn)
Result: 4.70 to 6.00

Ask: Provide measured pEC50 value, entry: Cn1c(CCCO)nc2c(N)nc3cc(-n4cccn4)ccc3c21
Result: ≥ 6.00
